Molecular target: T1, 006 PSMA Fab
T1 construct: Biotinylated and captured on neutravidin-coated plates in the phage ELISA; also called Anti-PSMA Fab
Experiment: clonal phage ELISA; biotinylated PSMA Fab on neutravidin plate, anti-M13-HRP detection
phage binding ELISA signal overview
Returns: the value as a bare number; no unit string appended.

A selection of reference data follows.
binder="GEKWCIPTWMCDWT [Phage-2373]" obs_value=1.4
binder="IPKWCTPVWMCAGF [Phage-2385]" obs_value=1.38

Q: Query phage binding ELISA signal for FEHWCTPPWMCFSS [Phage-2383]
A: 1.38

Q: Query phage binding ELISA signal for MGNWCIPEWMCWGT [Phage-2374]
A: 1.4

Q: Query phage binding ELISA signal for VVKWCIPTWMCQTL [Phage-2378]
A: 1.39

Data origin: patent US20260242478A1
